- MEASUREMENT_TARGET: NUAK1 (human) (UniProt O60285)
- Sequence (O60285 whole entry, looked up): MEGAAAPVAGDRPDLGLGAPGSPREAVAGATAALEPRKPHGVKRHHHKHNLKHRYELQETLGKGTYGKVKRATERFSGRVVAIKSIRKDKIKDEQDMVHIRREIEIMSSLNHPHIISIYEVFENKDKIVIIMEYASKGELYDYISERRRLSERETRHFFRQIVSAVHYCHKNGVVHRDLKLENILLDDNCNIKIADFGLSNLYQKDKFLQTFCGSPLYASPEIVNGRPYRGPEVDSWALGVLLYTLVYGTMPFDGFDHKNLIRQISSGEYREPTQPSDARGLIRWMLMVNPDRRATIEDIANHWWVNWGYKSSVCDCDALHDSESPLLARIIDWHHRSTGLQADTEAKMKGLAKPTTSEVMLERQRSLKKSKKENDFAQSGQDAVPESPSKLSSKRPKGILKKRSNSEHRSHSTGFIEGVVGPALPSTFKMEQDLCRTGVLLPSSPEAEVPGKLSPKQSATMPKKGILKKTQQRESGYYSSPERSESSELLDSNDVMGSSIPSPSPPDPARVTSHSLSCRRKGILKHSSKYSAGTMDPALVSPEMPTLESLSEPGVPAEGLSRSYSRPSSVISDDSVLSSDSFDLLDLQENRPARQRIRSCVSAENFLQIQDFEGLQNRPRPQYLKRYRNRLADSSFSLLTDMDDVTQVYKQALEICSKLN
- ASSAY_OVERVIEW: KINOMEscan competition binding
- EXPERIMENTAL_PARAMETERS: compound 10.0 µM
MEASUREMENT_NAME: kinase still bound, per cent of control (%)

Look over these answered cases.
>>> measured_value("COc1ccc(CNC(=O)Nc2ncc([N+](=O)[O-])s2)cc1")
100
>>> measured_value("Cc1cnc(-c2cnc(NCCNc3ccc(C#N)cn3)nc2-c2ccc(Cl)cc2Cl)[nH]1")
100

I. Cn1cc(C2=C(c3ccc(Cl)cc3Cl)C(=O)NC2=O)c2ccccc21
II. O=C1Nc2cc(Br)ccc2/C1=C1/Nc2ccccc2/C1=N\O
Prompt: Given the listed records, identify the one among I and II with higher kinase still bound, per cent of control. Please respond with the label that marks your chosen entry.
Response: I
(I: 90%, II: 12%)
